- test.description: Side effect tests on potato beetle larvae, topical application
- Assay type: in vivo
- conditions.used: Leptinotarsa decemlineata, in vivo, potato beetle larvae, after 3 days of application
endpoint.name: LC50 at 3 days (µg/mL)
Quick reminder: number only, in µg/mL, skip the unit.

Please look up its LC50 at 3 days: O=C(NC(=O)c1c(F)cccc1F)Nc1ccc(Cl)cc1 [Diflubenzuron, diflubenzuron, reference compound]
38

----------
- System: T. pityocampa larvae
- test.description: Toxicity tests, topical application on second instar larvae
- Type: in vivo
- conditions.used: Thaumetopoea pityocampa, topical, 336 h, read-out: LC50 (95% CI)
endpoint.name: LC50 (µg/mL)
Dear colleague, please return just the value in µg/mL, with no unit written.

compound | uom | value.reported
O=C(C[C@@H]1NC(=O)c2ccccc2NC1=O)NCCn1c(=O)c(O)nc2ccccc21 | µg/mL | 412
COc1ccc([C@H](CC(=O)NCc2ccncc2)c2cn(Cc3ccc(C)cc3)c3ccccc23)cc1OCc1ccccc1 | µg/mL | 406

Let's switch to this compound now.
Need LC50, item O=C1c2n[nH]c(-c3ccccc3O)c2C(c2cccc(OCc3ccccc3)c2)N1CC1CCCO1 (stereo not shown)
444

----------
- Test system: T. pityocampa larvae
- test.description: Larval body allometry (body length, head capsule width) on day 14 of treatment
- Assay type: in vivo, Thaumetopoea pityocampa
- conditions.used: day 14, Tukey HSD, n = 20
Marks after values point to notes of the source that are not given here. Positions of bridges follow the written chain, without caps; N, C: chain ends. Non-standard residues stand in square brackets, D forms with d. Residues, ends and D or L forms follow the SMILES beside them. pGlu = O=C1CC[C@@H](C(=O)O)N1
Reported head capsule width, Mean Difference (I-J) versus Control is given for each of the following molecules.

Example entries begin here.
molecule | value.reported
O=C(C[C@@H]1NC(=O)c2ccccc2NC1=O)NCCn1c(=O)c(O)nc2ccccc21 | -1,075* mm
O=C1c2n[nH]c(-c3ccccc3O)c2C(c2cccc(OCc3ccccc3)c2)N1CC1CCCO1 (stereo not shown) | -1,000* mm
CC[C@H](C)[C@@H]1NC(=O)[C@@H]2CCCN2C(=O)[C@H](CC(N)=O)NC(=O)[C@H](Cc2ccccc2)NC(=O)[C@H](Cc2ccc(O)cc2)NC(=O)[C@@H](NC(=O)[C@H](CCC(N)=O)NC(=O)[C@H](CCCNC(=N)N)NC(=O)[C@H](Cc2ccccc2)NC(=O)[C@H](CCCNC(=N)N)NC(=O)[C@@H](NC(=O)[C@@H]2CCC(=O)N2)C(C)C)CSSC[C@@H](C(=O)N[C@@H](Cc2ccccc2)C(=O)O)NC(=O)[C@H](CO)NC1=O [AST-C, reference compound] ([pGlu]VRFRQCYFNPISCF-OH; disulfide 7-14; C-terminus assumed) | -1,105* mm

Switching to the query record.
Any idea what head capsule width, Mean Difference (I-J) versus Control was measured for `COc1ccc([C@H](CC(=O)NCc2ccncc2)c2cn(Cc3ccc(C)cc3)c3ccccc23)cc1OCc1ccccc1` ?
-1,120* mm

----------
- System: Leptinotarsa decemlineata second-instar larvae
- test.description: Side effect tests on potato beetle larvae, topical application
- Assay type: in vivo
- conditions.used: 1000 ppm topical, second-instar larvae, days 3, 7, 14

molecule | tgt | Insect deaths (mortality rate)
O=C1c2n[nH]c(-c3ccccc3O)c2C(c2cccc(OCc3ccccc3)c2)N1CC1CCCO1 (stereo not shown) [D074-0034] | Leptinotarsa decemlineata second-instar larvae | below 10%
O=C1c2n[nH]c(-c3ccccc3O)c2C(c2cccc(Oc3ccccc3)c2)N1CC1CCCO1 (stereo not shown) [D074-0013] | Leptinotarsa decemlineata second-instar larvae | below 10%
O=C(C[C@@H]1NC(=O)c2ccccc2NC1=O)NCCn1c(=O)c(O)nc2ccccc21 [J100-0311] | Leptinotarsa decemlineata second-instar larvae | below 10%
COc1ccc([C@H](CC(=O)NCc2ccncc2)c2cn(Cc3ccc(C)cc3)c3ccccc23)cc1OCc1ccccc1 [V029-3547] | Leptinotarsa decemlineata second-instar larvae | below 10%
